Hi there, I'd appreciate the recorded z-score for every entry that follows.
METHOD NOTES: modulators of S6 phosphorylation in cells, primary screen, cell-based, A549, cytoblot, luminescence, serum-stimulated (AID 1158);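 further: serum-stimulated A549 lung adenocarcinoma cells; signal is phosphorylated S6 detected by cytoblot immunostaining with HRP secondary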
DETAILS: A549 phospho-S6 cytoblot, 5 h, higher = more signal

Query: Write down z-score measured for item "C=CC[C@]1(C(=O)NCc2ccccc2)COC(c2ccc(OCCCO)cc2)=N1"
Response: -0.429

Query: Please give measured z-score of the following entry: "[N-]=[N+]=NCc1ccccc1[C@H]1OC(c2ccc(OCCCO)cc2)=N[C@@]1(Cc1ccccc1)C(=O)N1CCOCC1"
Response: 0.692

Query: Please indicate z-score recorded for CC(C)C[C@@H]1NC(=O)[C@@]23C(=O)N[C@@H](Cc4ccccc4)C2[C@H](C)[C@@]2(C)O[C@H]2C3/C=C/C/C=C\CNC(=O)[C@@H](CC(C)C)NC1=O (stereo partly drawn)
Response: 0.0885

Query: Look up z-score of "C=C(COC)C(=O)CC[C@@H](OC(=O)c1cccnc1)c1cccc(OCCO)c1" and report it.
Response: 0.28

Query: Respond only with z-score recorded for O=C1C2C=CC(C(O)c3cccc(O)c3)N(Nc3ccccc3F)C2C(=O)N1c1ccccc1 (stereo not drawn)
Response: 3

Query: Recall and state the measured z-score for "COC(=O)Cn1c(C(=O)N(C)C)cc2c1C[C@H]1CN(C(=O)c3ccccc3)[C@@](Cc3ccc(OC)cc3)(C(=O)OC)[C@@H]21" .
Response: -0.62

Query: Report z-score, nothing else, for this compound: "COCC1=C([C@H](O)CCc2ccccc2)[C@H](CO)n2c(=O)n(-c3ccccc3)c(=O)n2C1"
Response: 1.72

Query: Dear colleague, please send me the reported z-score for "O=c1cccc(-c2ccccc2C(F)(F)F)o1" when you can.
Response: -0.67

---

METHOD NOTES: P. aeruginosa biofilm formation inhibitors, primary screen, PAO1 strain, BacTiter-Glo luminescence, LB-PBS (AID 1144)
DETAILS: 12 h, higher = more signal
VALUE TYPE: z-score
Respond numerically, and do not add a unit to the figure.

Query: Give reported z-score value for "O=C1c2ccccc2[C@@]2(Cc3ccccc3N(Cc3ccccc3)C2=O)[C@H](c2ccc(CO)cc2)N1Cc1ccccc1"
Response: -0.124

Query: Find the measured z-score of "C=C(CCCC)/C(=C/C[C@H](OC(C)=O)c1cccc(OCCO)c1)c1cc(C(=O)OC)ccc1OC" and report it.
Response: 0.0689

Query: Note z-score for the molecule shown: "COCCOC(=O)N1C(=O)[C@@]2(c3cc(C#CC4(O)CCCCCC4)ccc31)[C@H](c1ccc(OCCO)cc1)N1[C@H](c3ccccc3)[C@H](c3ccccc3)OC(=O)[C@H]1[C@@H]2C(=O)N1CCCCCCC1"
Response: -0.227

Query: Supply z-score value. Item: "CCCCNC(=O)c1ccc(C#C[Si](C)(C)C)c(OC(C)=O)c1"
Response: 0.305

Query: Provide only the value of recorded z-score for "C=CCNC(=O)[C@@H]1[C@H]2C(=O)O[C@H](c3ccccc3)[C@H](c3ccccc3)N2[C@H](c2ccc(O)cc2)[C@@]12C(=O)Nc1ccc(C#CC3(O)CCCCCC3)cc12"
Response: -0.817

Query: Output z-score of "CCCCC(=C=CC[C@@H](O)c1cccc(OCCO)c1)C[C@@H](O)COCc1ccccc1"
Response: -0.279

Query: Tell me measured z-score for "CCOC(=O)C[C@H]1[C@H](OC(=O)c2ccc(-c3ccccc3)cc2)[C@@H](NC(=O)c2ccc3ccccc3c2)c2cc(OCCCO)ccc2N1C(=O)c1ccccc1" please.
Response: 0.0625

Query: Let me know recorded z-score for NC(=O)N1C(=O)C2C(C1=O)C1C=C(CCCO)C2C(c2ccc(CN3CCCC3)cc2)N1Cc1cccc(OC(F)(F)F)c1 (stereo not drawn) , thanks.
Response: 0.963

Query: State its z-score: "COCCOC(=O)N1C(=O)[C@@]2(c3cc(C#CCNC(N)=O)ccc31)[C@H](C(=O)NC[C@H](O)c1ccccc1)[C@H]1C(=O)O[C@H](c3ccccc3)[C@H](c3ccccc3)N1[C@@H]2c1ccc(OCCO)cc1"
Response: -0.297

Query: Determine its reported z-score: "NC(=O)NCC#Cc1ccc2c(c1)[C@]1(C(=O)N2)[C@H](C(=O)Nc2nc3ccccc3s2)[C@H]2C(=O)O[C@H](c3ccccc3)[C@H](c3ccccc3)N2[C@@H]1c1ccc(OCCO)cc1"
Response: -1.02

Query: Look up and state reported z-score for "C=CCNC(=O)[C@@H]1[C@H]2C(=O)O[C@H](c3ccccc3)[C@H](c3ccccc3)N2[C@H](c2ccccc2OCCO)[C@@]12C(=O)N(C(=O)OCCOC)c1ccc(C#CCCO)cc12"
Response: -0.976

Query: Report measured z-score; entry is "[N-]=[N+]=NCc1ccccc1[C@@H]1OC(c2ccc(OCCCO)cc2)=N[C@]1(Cc1ccccc1)C(=O)NCc1ccccc1"
Response: -0.338

Query: Output z-score of "Cc1ccc(F)cc1S(=O)(=O)N[C@@H]1CCN(Cc2ccc3[nH]ccc3c2)C1"
Response: 1.17

---

ASSAY SYSTEM: Focal adhesion kinase 1 (Homo sapiens) (UniProt Q05397)
Sequence (Q05397 whole entry, looked up): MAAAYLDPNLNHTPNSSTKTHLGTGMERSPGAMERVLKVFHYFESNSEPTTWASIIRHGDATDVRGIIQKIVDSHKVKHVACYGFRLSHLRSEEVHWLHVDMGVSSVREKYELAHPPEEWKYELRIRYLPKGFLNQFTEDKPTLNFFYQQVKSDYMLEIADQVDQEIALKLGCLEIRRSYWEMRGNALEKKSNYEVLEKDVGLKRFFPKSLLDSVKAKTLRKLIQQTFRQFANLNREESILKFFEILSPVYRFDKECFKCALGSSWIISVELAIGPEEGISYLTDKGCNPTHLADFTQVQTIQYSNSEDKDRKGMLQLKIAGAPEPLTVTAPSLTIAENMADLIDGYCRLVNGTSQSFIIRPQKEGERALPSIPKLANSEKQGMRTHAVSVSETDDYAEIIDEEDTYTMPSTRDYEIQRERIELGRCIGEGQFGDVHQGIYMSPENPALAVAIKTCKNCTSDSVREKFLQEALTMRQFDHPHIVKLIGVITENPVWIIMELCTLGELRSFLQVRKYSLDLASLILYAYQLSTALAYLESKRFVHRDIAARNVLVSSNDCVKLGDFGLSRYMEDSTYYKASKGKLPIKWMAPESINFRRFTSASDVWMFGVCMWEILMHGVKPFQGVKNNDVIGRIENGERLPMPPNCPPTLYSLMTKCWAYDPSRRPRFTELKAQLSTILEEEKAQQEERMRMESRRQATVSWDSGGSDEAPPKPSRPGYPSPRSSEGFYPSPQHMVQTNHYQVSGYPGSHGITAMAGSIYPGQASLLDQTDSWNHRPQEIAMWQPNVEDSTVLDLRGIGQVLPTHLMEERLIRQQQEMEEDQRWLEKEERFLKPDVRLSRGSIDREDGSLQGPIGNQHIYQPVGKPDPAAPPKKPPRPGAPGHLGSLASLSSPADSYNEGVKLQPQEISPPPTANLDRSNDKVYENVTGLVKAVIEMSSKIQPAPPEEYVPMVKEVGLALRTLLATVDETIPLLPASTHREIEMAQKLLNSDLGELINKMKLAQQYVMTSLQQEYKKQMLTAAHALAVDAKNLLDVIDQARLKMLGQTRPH
METHOD NOTES: small-molecule microarray binders of FAK, primary screen, biochemical, 635/667 nm fluorescence, BSA, DTT (AID 1130);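 further: composite of spot emission at 667 nm and signal to noise over triplicate slides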
DETAILS: PTK2 binding, 635 nm fluorescence, higher = more signal
Field: class. Source value: composite z-score. Ranges: low bracket (below 0.1), middle bracket (0.1 to below 0.8), high bracket (0.8 or more)

Query: Which class holds "NC(=O)[C@@]1(CCS(=O)(=O)c2ccccc2)COC(c2ccc(OCCCO)cc2)=N1" ?
Response: low bracket

Query: Bin? "CCCC=C(CCC)[C@@H](NS(=O)(=O)c1ccc(Cl)cc1)c1ccccc1"
Response: high bracket

Query: Which of the defined bands does the recorded composite z-score of "CN(C)C(=O)[C@]1(Cc2ccccc2CN=[N+]=[N-])N=C(c2ccc(OCCCO)cc2)O[C@@H]1c1ccccc1N=[N+]=[N-]" sit within?
Response: high bracket

Query: State the band of "O=C1O[C@H](c2ccccc2)[C@H](c2ccccc2)N2[C@H]1[C@@H](C(=O)N1CCN(c3ncccn3)CC1)[C@]1(C(=O)Nc3ccccc31)[C@H]2c1ccc(O)cc1"
Response: middle bracket

Query: Sort "COc1ccc(CCNC(=O)[C@@H]2c3ccccc3C(=O)N(CC34CC5CC(CC(C5)C3)C4)[C@H]2c2ccc(CO)cc2)cc1" into one of the categories.
Response: middle bracket

Query: Hello team, could you let me know which band the following molecule falls into: "C=C(/C(=C/C[C@@H](OC(C)=O)c1ccccc1OCCO)c1cc(C(=O)OC)ccc1OC)C(C)C"
Response: low bracket

Query: Hi there! Could you help me figure out the category for "C=CCOC(=O)[C@@H]1[C@H]2C(=O)O[C@H](c3ccccc3)[C@H](c3ccccc3)N2[C@H](c2ccc(OCCOC(=O)[C@H]3C[C@H]4C(=O)NCC(=O)N4[C@H]3c3ccc(O)cc3)cc2)[C@@]12C(=O)Nc1ccc(I)cc12" please?
Response: middle bracket

Query: Class (by measured composite z-score) for "C=C(CC1([C@@H](NP(=O)(c2ccccc2)c2ccccc2)[C@H]2C[C@@H]2CCN(C(=O)OCC)S(=O)(=O)c2ccc(C)cc2)CC1)c1ccccc1"
Response: high bracket

Query: Form: Item = "COc1ccc([Si](C)(C)[C@H]2[C@H](CCO)O[C@@]3(C(=O)N(Cc4ccccc4)c4ccc(N(C=O)c5ccccc5)cc43)[C@@H]2C)cc1" ; Class = ?
Response: middle bracket

Query: Kindly state the category for this molecule: O=C1NC(=O)C2C1C=CC(C(O)c1ccc(F)cc1)N2Nc1ccccn1 (centres undefined)
Response: middle bracket

Query: Could you tell me which band "COCCOC(=O)N1C(=O)[C@@]2(c3cc(C#Cc4ccc(OC)cc4)ccc31)[C@H](C(=O)N1CCCCCCC1)[C@H]1C(=O)O[C@H](c3ccccc3)[C@H](c3ccccc3)N1[C@@H]2c1ccccc1OCCO" belongs to?
Response: middle bracket

Query: Tag the class for "CCCC[C@@H]1C[C@H]1[C@@H](NC(=O)Cc1ccccc1)c1ccc(Cl)cc1"
Response: high bracket

Query: Using the reported composite z-score, which band applies to "CCOC(=O)C[C@H]1[C@H](OC(=O)c2ccc(C(=O)c3ccccc3)cc2)[C@@H](NC(=O)c2ccc3ccccc3c2)c2cc(OCCCO)ccc2N1C(=O)c1ccc2ccccc2n1" ?
Response: middle bracket

Query: # classify by composite z-score band: CCCCN1CC=CC23O[C@@H]4C=CCOC(=O)[C@@H]4[C@H]2C(=O)N(CCO)[C@@H]3C1=O (some centres undefined)
Response: low bracket

Query: # bin lookup: classify "COC(=O)[C@@]1(Cc2ccc(F)cc2)[C@H]2c3cc(C(=O)N(C)C)n(CCn4cc([N+](=O)[O-])nc4C)c3C[C@H]2CN1C(=O)c1ccccc1" by its composite z-score
Response: high bracket

Query: For the record "CN1C(=O)[C@]2(CCS(=O)(=O)c3ccccc3)N=C(c3ccc(OCCCO)cc3)O[C@@H]2c2ccccc21" , report the class its composite z-score corresponds to.
Response: high bracket

Query: Lab note: which band did C=CC(CO)NC(=O)OCC1c2ccccc2-c2ccccc21 (centres undefined) land in?
Response: middle bracket

Query: Which bin, given its composite z-score, does "CN1C(=O)[C@]2(CCC(=O)OC(C)(C)C)N=C(c3ccc(OCCCO)cc3)O[C@@H]2c2ccccc21" occupy?
Response: middle bracket

Query: # bin lookup: classify CC(C)C[C@@H]1NC(=O)C([C@@H](C)OCc2ccccc2)NC(=O)[C@@]23C(=O)N[C@@H](Cc4ccccc4)C2[C@H](C)[C@@]2(C)O[C@H]2C3/C=C/CC/C=C/CNC1=O (some centres undefined) by its composite z-score
Response: high bracket

Query: Place this molecule in its band: C=CCC(OC(C)=O)[C@@H]1[C@@H](N(Cc2cccc3ccccc23)C(=O)c2ccc(C)cc2)c2cc(OCCCO)ccc2N1C(=O)c1ccc2ccccc2n1 (some centres undefined)
Response: middle bracket

Query: Which bin should I file "CC#CCO[Si](C#CCCCCCC)(C(C)C)C(C)C" under?
Response: low bracket

Query: Band assignment needed for "COC(=O)[C@@]1(Cc2ccc(OC)cc2)[C@@H]2[C@@H](CC(=O)[C@H]2CC(=O)C(=O)N2CCCC2)CN1C(=O)c1ccccc1" please.
Response: high bracket

Query: Categorize the following entry: "CN(C)C(=O)[C@@]1(CCS(=O)(=O)c2ccccc2)N=C(c2ccc(OCCCO)cc2)O[C@H]1c1ccccc1N=[N+]=[N-]"
Response: middle bracket

Query: Using the reported composite z-score, which band applies to CCCCN1CC=CC23O[C@@H]4C=CCOC(=O)[C@@H]4[C@H]2C(=O)N(C(CO)C(C)C)[C@@H]3C1=O (some centres undefined) ?
Response: low bracket

Query: Band assignment needed for CN1C(=O)C2C(C1=O)C1C=C(c3ccc(CO)cc3)C2C(c2cccs2)N1C (centres undefined) please.
Response: low bracket

Query: Please let me know in which category the item "CC(C)[C@@H](C(=O)O)n1cc(-c2ccccc2)nn1" belongs.
Response: high bracket

Query: Textbook exercise: identify the category of the molecule given here, "O=C1c2ccccc2[C@@]2(Cc3ccccc3N(Cc3ccccc3)C2=O)[C@H](c2ccc(CO)cc2)N1Cc1ccccc1" , according to its measured value.
Response: low bracket

Query: Just checking, what class would you give "CC(C)C(=C=CC[C@@H](O)c1ccccc1OCCO)C[C@@H](O)c1cc(Cl)cc(Cl)c1O" here?
Response: low bracket

Query: GET /class?item= C=CCC(OC(C)=O)[C@@H]1[C@@H](N(Cc2cc3ccccc3o2)C(=O)c2cccc3ccccc23)c2cc(OCCCO)ccc2N1C(=O)c1ccc2ccccc2c1 (some centres undefined)
Response: middle bracket
